# System: Escherichia coli (ECOL)
# TEST_DESCRIPTION: Minimum inhibitory concentration (MIC), broth two-fold serial dilution test
# ASSAY_CONDITIONS: Escherichia coli, read-out: MIC (G-) ECOL, M9G (minimal salts media with glucose); Table IIIa
MEASURED_PARAMETER: MIC

> print(dat)
                                   compound  readout.value
1  CC(C)(C)OC(=O)N[C@@H](COCc1ccccc1)C(=O)OCC#CI [Compound 3]    > 100 µg/mL
2  CC(C)(C)OC(=O)N[C@@H](CSCc1ccccc1)C(=O)OCC#CI [Compound 4]    > 100 µg/mL

With those in mind, consider the next compound.
### Prompt Give its MIC value. Item: C[C@H](NC(=O)OC(C)(C)C)C(=O)OCC#CI [Compound 2]
### Response > 100 µg/mL

----------
# Tested on: Staphylococcus aureus (SAUR)
# TEST_DESCRIPTION: Minimum inhibitory concentration (MIC), broth two-fold serial dilution test
# ASSAY_CONDITIONS: Staphylococcus aureus, IIIB, read-out: MIC (G+) SAUR, trypticase soy broth (complex media); Table IIIb
MIC values, listed per item
Your answer should be a number followed by the unit of measure.

> print(dat)
                                   compound  measured.parameter  readout.value
1  O=C(CNC(=O)c1ccccc1)OCC#CI [Compound 29, N-benzoylglycine iodopropargyl ester]                 MIC       32 µg/mL
2  C/C=C/C=C/C(=O)NCC(=O)OCC#CI [Compound 35, N-sorbylglycine iodopropargyl ester]                 MIC       63 µg/mL

Next compound, MIC to be filled in.
### Prompt What does the data say about its MIC? Entry: CCCCCCCC(=O)NCC(=O)OCC#CI [Compound 34, N-octanoylglycine iodopropargyl ester]
### Response 250 µg/mL
